Data credit: patent EP1658846B1

assay protocol: Cell viability by trypan blue exclusion
Assay type: cell-based
condition description: human, hepg2.2.15 cells, concentration [1000] (unit inferred), 3 days, cells excluding trypan blue; read-out: % Viable +/-1 S.D.
observed property: viability at 72 h
Answers without a unit are incomplete; give the number and then its unit.

Reported viability at 72 h, molecule CCCCN1C[C@H](O)[C@@H](O)[C@H](O)[C@H]1CO : ____ 87%

###

assay protocol: MTT-based colorimetric cell viability assay
condition description: human, hepg2.2.15 cells; read-out: [] for a 50% reduction in MMT
observed property: CC50

Reported CC50, compound CCCCN1C[C@H](O)[C@@H](O)[C@H](O)[C@H]1CO : ____ 100 to 200 µg/mL
